Data origin: ChEMBL document CHEMBL5500367

# subject-of-test: Programmed cell death protein 1/Programmed cell death 1 ligand 1 (Homo sapiens, UniProt Q9NZQ7)
# Sequence (Q15116 whole entry): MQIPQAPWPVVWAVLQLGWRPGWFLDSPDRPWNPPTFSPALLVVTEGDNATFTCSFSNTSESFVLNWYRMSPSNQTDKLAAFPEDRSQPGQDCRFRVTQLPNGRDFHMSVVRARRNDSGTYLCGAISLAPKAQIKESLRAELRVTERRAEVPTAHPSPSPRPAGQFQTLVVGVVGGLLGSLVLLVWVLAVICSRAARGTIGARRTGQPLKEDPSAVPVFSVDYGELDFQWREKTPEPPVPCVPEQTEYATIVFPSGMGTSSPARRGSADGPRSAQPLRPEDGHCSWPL
# Sequence (Q9NZQ7 whole entry): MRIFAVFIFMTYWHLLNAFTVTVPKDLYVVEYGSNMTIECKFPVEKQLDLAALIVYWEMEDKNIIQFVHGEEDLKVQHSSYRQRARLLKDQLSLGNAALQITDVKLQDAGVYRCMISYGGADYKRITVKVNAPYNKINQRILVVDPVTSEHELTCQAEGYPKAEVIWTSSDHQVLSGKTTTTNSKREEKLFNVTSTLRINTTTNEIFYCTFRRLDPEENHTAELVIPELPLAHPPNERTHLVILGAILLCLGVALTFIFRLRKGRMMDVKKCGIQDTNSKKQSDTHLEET
# test-protocol: Inhibition of PD-1/PD-L1 (unknown origin) interaction incubated for 15 mins by HTRF assay
readout-label: IC50 (nM)
Provide only the numeric value, understood in nM.

Examples with their reported IC50 follow.
>  <structure-as-smiles>
COc1cc(OC(=O)c2cccc(-c3ccccc3)c2C)ccc1CN1CCC(O)CC1

>  <unit-symbol>
nM

>  <IC50>
78.6

$$$$
>  <structure-as-smiles>
COc1cc(OC(=O)c2cccc(-c3ccccc3)c2C)ccc1CNCCN(C)C

>  <unit-symbol>
nM

>  <IC50>
358

$$$$
>  <structure-as-smiles>
Cc1c(C(=O)Oc2ccc(CN[C@H](CO)C(=O)O)cc2)cccc1-c1ccccc1

>  <unit-symbol>
nM

>  <IC50>
55.1

$$$$
>  <structure-as-smiles>
COc1cc(OC(=O)c2cccc(-c3ccccc3)c2C)ccc1CNCCNC(C)=O

>  <unit-symbol>
nM

>  <IC50>
893

$$$$

For the compound "COc1cc(OC(=O)c2cccc(-c3ccccc3)c2C)ccc1CNC[C@H](O)CO" , what IC50 is on record?
381

---

A short record of Ka observed with Programmed cell death 1 ligand 1 (Homo sapiens) follows.

Some molecules with known Ka results, for comparison:
>  <structure-as-smiles>
Cc1cc(OC(=O)c2cccc(-c3ccccc3)c2C)ccc1CN[C@@H](CO)C(=O)O

>  <Ka>
5.31 10^5/M/s

$$$$
>  <structure-as-smiles>
Cc1c(C(=O)Oc2ccc(CNC(CO)(CO)CO)c(Br)c2)cccc1-c1ccccc1

>  <Ka>
1.16 10^5/M/s

$$$$
>  <structure-as-smiles>
Cc1cc(OC(=O)c2cccc(-c3ccccc3)c2C)ccc1CNC(CO)(CO)CO

>  <Ka>
4.37 10^5/M/s

$$$$
>  <structure-as-smiles>
COc1cc(OCc2cccc(-c3ccccc3)c2C)cc(OC)c1CN1CCCC[C@H]1C(=O)O

>  <Ka>
1.17 10^5/M/s

$$$$

Attention now shifts to the item below.
Data request, read-out Ka, for "Cc1c(C(=O)Oc2ccc(CN3C[C@H](O)C[C@H]3C(=O)O)c(OCc3cccc(C#N)c3)c2)cccc1-c1ccccc1"
7.9 10^5/M/s

---

The entries below are paired with their reported pIC50.
# subject-of-test: Programmed cell death protein 1/Programmed cell death 1 ligand 1 (Homo sapiens, UniProt Q9NZQ7)
# test-protocol: Inhibition of PD-1/PD-L1 (unknown origin) interaction incubated for 15 mins by HTRF assay
# pIC50 is unitless: minus log10 of the molar concentration; print number only

>  <molecule>
Cc1c(C(=O)Oc2ccc(CN3C[C@H](O)C[C@H]3C(=O)O)c(OCc3cccc(C#N)c3)c2)cccc1-c1ccccc1

>  <pIC50>
8.92

$$$$
>  <molecule>
Cc1cc(OC(=O)c2cccc(-c3ccccc3)c2C)ccc1CNC(CO)(CO)CO

>  <pIC50>
8.70

$$$$

Which value of pIC50 has been reported for "COc1cc(OC(=O)c2cccc(-c3ccccc3)c2C)ccc1CN[C@@H](CO)C(=O)O" in the records?
7.56

Then this molecule: "Cc1c(C(=O)Oc2ccc(CNCCO)c(OCc3cccc(C#N)c3)c2)cccc1-c1ccccc1"
7.88

Another molecule to check: "CC(=O)NCCNCc1ccc(OC(=O)c2cccc(-c3ccccc3)c2C)cc1OCc1cccc(C#N)c1"
6.30
